Test: qHTS of pediatric cancer cell lines to identify multiple opportunities for drug repurposing: Confirmatory screen for TC32 cells (AID 1347118);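 note: cells exposed to compound for 48 h before the read; nearly all actives have a fitted effect of over 65% in size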; note: potency is the fitted concentration of half-maximal effect
Details: TC32 Ewing sarcoma cells viability qHTS; series mostly up to 45.9 µM
Results filed as inconclusive are left out. Calls of active or inactive are those of the source. Calls come from the whole dose curve; as a rule, active = well fitted cell-killing curve with a large enough effect; inconclusive = small, poorly fitted or top-dose-only effect; inactive = no such curve, though single readings can be large or run the other way.
measure: Potency

INSERT INTO measurements (molecule, experimental_result) VALUES
  ('COc1cc([C@@H]2c3cc4c(cc3[C@@H](O)C3COC(=O)C32)OCO4)cc(OC)c1O (stereo partly drawn)', '585 nM (active)'),
  ('CC(C)(O)C=CC(=O)[C@](C)(O)[C@H]1[C@H](O)C[C@]2(C)[C@@H]3CC=C4[C@@H](C=C(O)C(=O)C4(C)C)[C@]3(C)C(=O)C[C@@]12C', '827 nM (active)'),
  ('CC(=O)[O][Hg][c]1ccccc1', '827 nM (active)'),
  ('Cc1ccccc1-n1c(Cn2cnc3c(N)ncnc32)nc2cccc(C)c2c1=O', 'inactive'),
  ('CC(=Cc1csc(C)n1)[C@@H]1C[C@H]2O[C@]2(C)CCC[C@H](C)[C@@H](O)[C@@H](C)C(=O)C(C)(C)[C@@H](O)CC(=O)O1', '3.7 nM (active)'),
  ('O=C(Nc1ccncc1)C(=O)c1cn(Cc2ccc(Cl)cc2)c2ccccc12', '233 nM (active)'),
  ('CS(=O)(=O)c1ccc(C(=O)C2C(=O)CCCC2=O)c([N+](=O)[O-])c1', 'inactive'),
  ('CCCCCC[C@H]1C(=O)O[C@H](C)[C@H](NC(=O)c2cccc(NC=O)c2O)C(=O)O[C@@H](C)[C@@H]1OC(=O)CC(C)C', '117 nM (active)');

====

Tested on: DFO2036
Assay: qHTS profiling for inhibitors of Plasmodium falciparum proliferation (AID 504749); note: nearly all actives have a fitted effect of over 60% in size
Details: P. falciparum in erythrocytes, SYBR Green DNA, 72 h; series mostly up to 28.7 µM
Records with an inconclusive call do not appear. Activity calls are given as the source filed them. Calls follow the shape of the dose curve; as a rule, active = well fitted inhibition curve with a large enough effect; inconclusive = small, poorly fitted or top-dose-only effect; inactive = flat fitted curve, though single readings scatter.
Classes used: active, inactive

INSERT INTO assay_data (compound, group) VALUES
  ('O=C(O)COc1ccccc1', 'inactive'),
  ('CN1C2CCC1CC(OC(=O)c1cc(Cl)cc(Cl)c1)C2 (stereo not drawn)', 'inactive'),
  ('COC(C)(C)CCCC(C)C/C=C/C(C)=C/C(=O)OC(C)C (stereo not drawn)', 'inactive'),
  ('NC(=O)CN1CC(O)CC1=O (stereo not drawn)', 'inactive'),
  ('C#CC1(O)CCC2C3CCC4=CC(=O)CCC4(C)C3CCC21C (stereo not drawn)', 'inactive'),
  ('O=C(O)C(Cl)Cl', 'inactive'),
  ('O=[N+]([O-])c1ccc([As](=O)(O)O)cc1', 'active'),
  ('COC(=O)[C@@H](N)CCCN=C(N)N[N+](=O)[O-]', 'inactive'),
  ('CC[N+]1(CCOC(=O)C(O)(c2ccccc2)c2ccccc2)CCCCC1', 'inactive'),
  ('CC(=O)[O][Hg][c]1ccccc1', 'active'),
  ('C1CCC(NC2CCCCC2)CC1', 'inactive'),
  ('CCCCc1ccc(C(=O)O)nc1', 'inactive'),
  ('CCCCCCCCCC(CC)c1ccc(S(=O)(=O)O)cc1 (stereo not drawn)', 'inactive');

====

Molecular target: Phenylethanolamine N-methyltransferase (Homo sapiens)
Assay: Confirmatory Screen for Target Class Profiling of Small Molecule Inhibitors of Methyltransferases (AID 1745852)
Details: MTase-Glo luminescence, SAH detection, recombinant enzyme; measured here: PNMT max response; stronger effect = lower value
Here the recorded activity is given for each entry.
measure: activity (%)

INSERT INTO assay_data (compound, measure, measurement_units, experimental_result) VALUES
  ('NC1CCc2cc(O)c(O)cc2C1 (centres undefined)', 'activity', '%', -22.8),
  ('NCCc1c[nH]c2ccccc12', 'activity', '%', -14.8),
  ('Cc1[nH]nc2ccc(-c3cncc(OC[C@@H](N)Cc4c[nH]c5ccccc45)c3)cc12', 'activity', '%', -56.5),
  ('CCCN(CCC)[C@@H]1CCc2ccc(O)cc2C1', 'activity', '%', 6.74);

====

Test: Quantitative High-Throughput drug screen in 47 multiple myeloma cell lines against the NCATS MIPE library collection: NCIH929_DSMZ cell viability assay (AID 1918978); note: nearly all actives have a fitted effect of over 35% in size
Details: NCI-H929 myeloma viability, CellTiter-Glo ATP, 48 h; series mostly up to 45.8 µM
Results filed as inconclusive are left out. The source made the active and inactive calls. The call rests on the fitted dose curve; in most records, active means well fitted cell-killing curve with a large enough effect; inconclusive means small, poorly fitted or top-dose-only effect; inactive means no such curve, though single readings can be large or run the other way.
Classes used: 1 = active, -1 = inactive

INSERT INTO assay_data (compound, group) VALUES
  ('C1=C2CCCN[C@H]2[C@@H]2C[C@H]1[C@@H]1CCCCN1C2', -1),
  ('CC[C@@H]1[C@@H](C)O[C@@](O)([C@@H](C)[C@H](O)[C@H](C)[C@H]2OC(=O)C=CC=C[C@@H](C)[C@@H]([C@@H](C)[C@@H](O)[C@H](C)[C@@]3(O)C[C@H](O[C@H]4C[C@H](O)[C@H](O)[C@H](C)O4)[C@H](CC)[C@@H](C)O3)OC(=O)C=CC=C[C@@H]2C)C[C@H]1O[C@H]1C[C@H](O)[C@H](O)[C@H](C)O1', 1),
  ('O=S(=O)(CC1CS1)c1ccc(Oc2ccccc2)cc1 (stereo not drawn)', 1);

====

Test system: MKL-1
Experiment: qHTS assay to identify novel small-molecules to repurpose for Merkel cell carcinoma treatment (AID 1296009); note: nearly all actives have a fitted effect of over 60% in size
Settings: MCC and control cell lines, CellTiter-Glo viability, 72 h; series mostly up to 46 µM
Records with an inconclusive call do not appear. Calls of active or inactive are those of the source. The call rests on the fitted dose curve; in most records, active means well fitted inhibition curve with a large enough effect; inconclusive means small, poorly fitted or top-dose-only effect; inactive means flat fitted curve, though single readings scatter.
Classes used: active, inactive

INSERT INTO assay_data (compound, group) VALUES
  ('CC=C(C)C(=O)N[C@@H](c1ccccc1)[C@@H](O)C(=O)O[C@H]1C[C@@]2(O)[C@@H](OC(=O)c3ccccc3)[C@@H]3[C@]4(OC(C)=O)CO[C@@H]4C[C@H](O)[C@@]3(C)C(=O)[C@H](OC(C)=O)C(=C1C)C2(C)C', 'inactive'),
  ('CC(=O)N(C)c1cccc(-c2ccnc3c(C(=O)c4cccs4)cnn23)c1', 'inactive'),
  ('S=C(SSC(=S)N1CCCCC1)N1CCCCC1', 'active'),
  ('COc1ccc2c(c1)CN(C)CC2c1ccc(Cl)c(Cl)c1 (stereo unspecified)', 'inactive'),
  ('CC(=O)Nc1ccc(OC[C@](C)(O)C(=O)Nc2ccc([N+](=O)[O-])c(C(F)(F)F)c2)cc1', 'inactive'),
  ('COc1cc([C@@H]2c3cc4c(cc3[C@@H](O)C3COC(=O)C32)OCO4)cc(OC)c1O (stereo partly specified)', 'active'),
  ('CCCC[N+]1(C)[C@H]2CC(OC(=O)[C@H](CO)c3ccccc3)C[C@H]1[C@H]1O[C@H]12 (stereo partly specified)', 'inactive'),
  ('CN[C@@H](C)[C@H](O)c1ccccc1', 'inactive'),
  ('C=C[C@@H]1CN2CCC1C[C@H]2[C@H](O)c1ccnc2ccccc12 (stereo partly specified)', 'inactive'),
  ('CC(C)(O)C(=O)Nc1ccc([N+](=O)[O-])c(C(F)(F)F)c1', 'inactive'),
  ('O=C(O)c1cc(Oc2ccc(C(F)(F)F)cc2Cl)ccc1[N+](=O)[O-]', 'inactive'),
  ('CCOCCOC(C)=O', 'inactive'),
  ('CN[C@@H]1Cc2cccc3[nH]c(=O)n(c23)C1', 'inactive'),
  ('CCOP(=O)(NC(C)C)Oc1ccc(SC)c(C)c1 (stereo unspecified)', 'inactive'),
  ('CC(C)(O)C=CC(=O)[C@](C)(O)[C@H]1[C@H](O)C[C@]2(C)[C@@H]3CC=C4[C@@H](C=C(O)C(=O)C4(C)C)[C@]3(C)C(=O)C[C@@]12C', 'active'),
  ('O=S(=O)(O)C(F)(F)C(F)(F)C(F)(F)C(F)(F)F', 'inactive'),
  ('CC=C(C)C(=O)O[C@H]1C(C)=C2[C@@H]3OC(=O)[C@@](C)(O)[C@@]3(O)[C@@H](OC(=O)CCC)C[C@](C)(OC(C)=O)[C@@H]2[C@@H]1OC(=O)CCCCCCC', 'active'),
  ('CCC(=O)OC1CCC2C3CCC4=CC(=O)CC[C@@]4(C)C3CC[C@]12C (stereo partly specified)', 'inactive'),
  ('COc1cccc2c1[C@]13CCN(CC4CC4)[C@H](C2)[C@]1(OC)CCC(=O)C3', 'inactive'),
  ('COC(C)(C)CCCC(C)C/C=C/C(C)=C/C(=O)OC(C)C (stereo unspecified)', 'inactive'),
  ('COc1ccc(CC2NCCc3cc(OC)c(OC)cc32)cc1OC (stereo unspecified)', 'inactive'),
  ('O=c1[nH]c2ccccc2n1C1CCN(Cc2ccc(-c3[nH]c4cc5ncnc5cc4nc3-c3ccccc3)cc2)CC1', 'inactive'),
  ('Nc1ccc(N=Nc2ccccc2)cc1', 'inactive'),
  ('C[C@]12CCC(=O)C(O)=C1CC[C@@H]1[C@H]3CCC(=O)[C@@]3(C)CC[C@@H]12', 'inactive'),
  ('C[C@H]1CCCC=CC2C[C@H](O)C[C@@H]2[C@H](O)C=CC(=O)O1 (stereo partly specified)', 'inactive'),
  ('c1ccc(CCCN2CCN(CCOC(c3ccccc3)c3ccccc3)CC2)cc1', 'inactive'),
  ('O=C(Nc1ccccc1-c1ccc(Cl)cc1)c1cccnc1Cl', 'inactive'),
  ('C[C@]12COC(=O)C[C@@H]1CC[C@@H]1[C@H]2CC[C@@]2(C)[C@H]1CC[C@]2(C)O', 'inactive'),
  ('COc1cc2cc(c1Cl)N(C)C(=O)C[C@H](OC(=O)C(C)C)[C@]1(C)O[C@H]1[C@H](C)[C@@H]1C[C@@](O)(NC(=O)O1)[C@H](OC)C=CC=C(C)C2', 'inactive'),
  ('C[C@H]([C@H](O)CCC(C)(C)O)[C@H]1CC[C@@]2(O)C3=CC(=O)[C@@H]4C[C@@H](O)[C@@H](O)C[C@]4(C)[C@@H]3CC[C@]12C', 'inactive'),
  ('Nc1ccc(Cl)cc1', 'inactive'),
  ('CN1[C@H]2CC(O)C[C@H]1[C@H]1O[C@H]12 (stereo partly specified)', 'inactive'),
  ('CC(Cc1ccc(O)cc1)NCC(O)c1cc(O)cc(O)c1 (stereo unspecified)', 'inactive'),
  ('CSCC[C@@H](NC(=O)[C@@H](Cc1ccccc1)NC(=O)CNC(=O)CNC(=O)[C@@H](N)Cc1ccc(O)cc1)C(=O)O', 'inactive'),
  ('CO[C@H]1CCC(O[C@H]2C[C@H]([C@]3(C)CC[C@]4(C[C@H](O)[C@@H](C)[C@@H]([C@@H](C)C=C(C)C(=O)[C@H](C)C[C@H](C)C(=O)O)O4)O3)O[C@]3(O[C@@H]([C@H]4O[C@@](O)(CO)[C@H](C)C[C@H]4C)C[C@H]3C)[C@H]2C)O[C@H]1C (stereo partly specified)', 'active'),
  ('C1=C2CCCN[C@H]2[C@@H]2C[C@H]1[C@@H]1CCCCN1C2', 'inactive');
